Reported 3F8 Ortho Proliferation Signal 1:10 values follow for various binders
target or system: T1, orthogonal hCD122 receptor (hoRb), hCD122 with H133D and Y134F (human, UniProt P14784 27-550)
T1 sequence: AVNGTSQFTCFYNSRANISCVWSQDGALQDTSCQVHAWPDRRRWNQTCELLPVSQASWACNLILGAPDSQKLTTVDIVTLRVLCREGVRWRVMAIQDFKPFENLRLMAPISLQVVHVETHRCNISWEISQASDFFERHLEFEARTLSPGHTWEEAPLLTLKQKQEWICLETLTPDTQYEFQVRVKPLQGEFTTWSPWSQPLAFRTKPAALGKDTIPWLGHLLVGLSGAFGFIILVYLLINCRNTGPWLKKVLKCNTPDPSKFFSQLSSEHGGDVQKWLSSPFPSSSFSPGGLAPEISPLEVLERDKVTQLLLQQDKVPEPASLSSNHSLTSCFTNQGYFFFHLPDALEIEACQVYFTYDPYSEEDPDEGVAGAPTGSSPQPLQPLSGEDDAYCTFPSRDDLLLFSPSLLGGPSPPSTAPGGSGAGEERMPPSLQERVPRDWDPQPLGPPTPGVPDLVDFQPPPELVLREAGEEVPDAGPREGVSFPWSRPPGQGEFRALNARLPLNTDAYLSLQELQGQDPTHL
method description: cell-based or functional assay
Answer format: numeric, cts/min implied, no suffix.

Example cases with answers are listed next.
# binder, observed measurement
measured = [
    ("SQVLKH (ligand) APTSSSTKKTQLQLSQLLVLLKHILNGINNYKNPKLTRMLTFKFYMPKKATELKHLQCLEEELKPLEEVLNLAQSKNFHLRPRDLISNINVIVLELKGSETTFMCEYADETATIVEFLNRWITFCQSIISTLT", 17300),
    ("D109C, SQVLKA (ligand) APTSSSTKKTQLQLSQLLVLLKAILNGINNYKNPKLTRMLTFKFYMPKKATELKHLQCLEEELKPLEEVLNLAQSKNFHLRPRDLISNINVIVLELKGSETTFMCEYACETATIVEFLNRWITFCQSIISTLT", 34000),
    ("SQVLKL (ligand) APTSSSTKKTQLQLSQLLVLLKLILNGINNYKNPKLTRMLTFKFYMPKKATELKHLQCLEEELKPLEEVLNLAQSKNFHLRPRDLISNINVIVLELKGSETTFMCEYADETATIVEFLNRWITFCQSIISTLT", 37000),
]

Next item in the queue.
Query: I'd like to know its 3F8 Ortho Proliferation Signal 1:10. The binder in question is ΔL14, SQVLKA (ligand) APTSSSTKKTQLQSQLLVLLKAILNGINNYKNPKLTRMLTFKFYMPKKATELKHLQCLEEELKPLEEVLNLAQSKNFHLRPRDLISNINVIVLELKGSETTFMCEYADETATIVEFLNRWITFCQSIISTLT
Reply: 24500

Data origin, for the record: patent US20210196796A1
